B1: Tyrosine-protein kinase Lck, residues 63 to 120; numbered along this chain, P06239 (parent)
chain: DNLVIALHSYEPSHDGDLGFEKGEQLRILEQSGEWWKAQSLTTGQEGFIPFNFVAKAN

- Variants of: B1
- EXPERIMENTAL_PROTOCOL: abundance fitness (aPCA) (normalised: wild type 0, dead -1); higher = more abundant; growth selection in yeast, the domain comes from the species named
- CONDITION_LABEL: Homo sapiens
The following variants are listed with their measured abundance fitness values.
In your answer, state the number alone without any accompanying words.

>>> reported_measurement("K56S")
-0.002
>>> reported_measurement("E21M")
-0.134
>>> reported_measurement("E11Y")
-0.363
>>> reported_measurement("Q25W")
-0.169
>>> reported_measurement("A6T")
-0.113

Here's the next entry for you.
Ask | Give abundance fitness for D15H
Reply | -0.071
